Molecular target: ligand binding domain of human RORγ (Homo sapiens)
Construct: host or cells: HEK293t
Sequence (P51449 269-508 limits assumed): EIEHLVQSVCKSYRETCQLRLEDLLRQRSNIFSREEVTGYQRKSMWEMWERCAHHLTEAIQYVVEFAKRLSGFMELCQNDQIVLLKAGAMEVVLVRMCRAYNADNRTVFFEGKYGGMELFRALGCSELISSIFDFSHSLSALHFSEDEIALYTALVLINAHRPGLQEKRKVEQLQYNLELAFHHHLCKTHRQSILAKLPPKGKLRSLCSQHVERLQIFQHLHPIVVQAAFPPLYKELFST
Experiment: RORγ Reporter Assay (Gal4)
Type: cell-based
Details: HEK-293T, 1 μM test compound, HEK293t RORγ reporter cells, 24 hour; read-out: Gal4 activity range @ 1 μM (% inhibition)
endpoint: inhibition at 1 µM

Answered cases to consult:
molecule=NC(=O)Cc1ccc(CNc2ncnc(N(Cc3c(F)cccc3Cl)C3CC3)c2F)cc1 endpoint="inhibition at 1 µM" measured="> 50%"
molecule="NC(=O)Cc1ccc(CNc2ncnc(N(C3CC3)C(c3ccc(C(F)(F)F)cc3)C3CC3)c2F)cc1 (stereo not shown)" endpoint="inhibition at 1 µM" measured="> 80%"
molecule=CC(=O)N1CCC(CNc2ncnc(N(Cc3ccc(C(F)(F)F)cc3)C3CC3)c2F)CC1 endpoint="inhibition at 1 µM" measured="> 80%"

Challenge: Please look up its inhibition at 1 µM: CCOc1ccc(CN(c2ncnc(NCc3ccc(CC(N)=O)cc3)c2F)C2CC2)cc1
Response given: > 80%

###

Molecular target: ligand binding domain of human RORγ (Homo sapiens, UniProt P51449)
Construct: host or cells: HEK293t
Sequence (P51449 269-508 limits assumed): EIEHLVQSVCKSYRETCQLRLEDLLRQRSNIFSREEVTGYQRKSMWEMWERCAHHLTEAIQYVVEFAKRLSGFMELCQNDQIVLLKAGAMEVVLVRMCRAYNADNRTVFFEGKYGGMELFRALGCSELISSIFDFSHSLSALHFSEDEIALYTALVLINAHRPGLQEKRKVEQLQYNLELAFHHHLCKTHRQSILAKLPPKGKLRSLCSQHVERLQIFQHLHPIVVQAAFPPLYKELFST
Assay: RORγ Reporter Assay (Gal4)
Type: cell-based
Settings: HEK-293T, 1 μM test compound, HEK293t RORγ reporter cells, 24 hour; read-out: Gal4 activity range @ 1 μM (% inhibition)
endpoint: inhibition at 1 µM

Answered cases to consult:
compound="CC(c1ccc(C(F)(F)F)cn1)N(c1ncnc(NCc2ccc(CC(N)=O)cc2)c1F)C1CC1 (stereo not shown) [Example A104]" measured="> 80%"
compound="NC(=O)Cc1ccc(CNc2cc(N(Cc3ccc(C(F)(F)F)cc3)C3CC3)ncn2)cc1 [Example A107]" measured="> 50%"
compound="NC(=O)Cc1ccc(CNc2ncnc(N(Cc3ccc(OC(F)(F)F)cc3)C3CC3)c2F)cc1 [Example A6]" measured="> 80%"

Please examine the following record next.
Challenge: Please look up its inhibition at 1 µM: CC(C)c1ccc(CN(c2ncnc(NCc3ccc(CC(N)=O)cc3)c2F)C2CC2)cn1 [Example A97]
Response given: > 80%

###

The compounds below have reported IC50 for human RORγt (Ligand Binding Domain) (Homo sapiens).

Answered cases to consult:
compound="CS(=O)(=O)CC1(CNc2ncnc(N(Cc3ccc(C(F)(F)F)cc3)C3COC3)c2F)CCOCC1 [Example A45]" test_system="human RORγt (Ligand Binding Domain) (Homo sapiens)" endpoint=IC50 measured="< 2000 nM"
compound="Cc1cccc(Cl)c1CN(c1ncnc(NCc2ccc(CC(N)=O)cc2)c1F)C1CC1 [Example A67]" test_system="human RORγt (Ligand Binding Domain) (Homo sapiens)" endpoint=IC50 measured="< 500 nM"
compound="COc1cccc(CN(c2ncnc(NCc3ccc(CC(N)=O)cc3)c2F)C2CC2)c1 [Example A55]" test_system="human RORγt (Ligand Binding Domain) (Homo sapiens)" endpoint=IC50 measured="< 500 nM"
compound="Cc1ccc(CN(C)c2ncnc(NCc3ccc(CC(N)=O)cc3)c2F)c(C)c1 [Example A138]" test_system="human RORγt (Ligand Binding Domain) (Homo sapiens)" endpoint=IC50 measured="< 500 nM"
compound="Fc1c(NC[C@H]2CC[C@H](Cc3nnn[nH]3)CC2)ncnc1N(Cc1ccc(C(F)(F)F)cc1)C1CC1 [Example A61]" test_system="human RORγt (Ligand Binding Domain) (Homo sapiens)" endpoint=IC50 measured="< 500 nM"
compound="NC(=O)Cc1ccc(CNc2ncnc(N(C3CC3)C(c3ccc(C(F)(F)F)cc3)C3CCC3)c2F)cc1 (centres unmarked) [Example A17]" test_system="human RORγt (Ligand Binding Domain) (Homo sapiens)" endpoint=IC50 measured="< 2000 nM"
compound="COc1ccc(CN(C)c2ncnc(N(Cc3ccc(C(F)(F)F)cc3)C3CC3)c2F)cn1 [Example A24]" test_system="human RORγt (Ligand Binding Domain) (Homo sapiens)" endpoint=IC50 measured="< 500 nM"

Challenge: Please look up its IC50: COc1ccc(CN(C)c2ncnc(NCc3ccc(CC(N)=O)cc3)c2F)c(OC)c1 [Example A139]
Response given: < 2000 nM

###

# inhibition at 1 µM per entry
Molecular target: ligand binding domain of human RORγ (Homo sapiens, UniProt P51449)
Construct: host or cells: HEK293t
Sequence (P51449 269-508 limits assumed): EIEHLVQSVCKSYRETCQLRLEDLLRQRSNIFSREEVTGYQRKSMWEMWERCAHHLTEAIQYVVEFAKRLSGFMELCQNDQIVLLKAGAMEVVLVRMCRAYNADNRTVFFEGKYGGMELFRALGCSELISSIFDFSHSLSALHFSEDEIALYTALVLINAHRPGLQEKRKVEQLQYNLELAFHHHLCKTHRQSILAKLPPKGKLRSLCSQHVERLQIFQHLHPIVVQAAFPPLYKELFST
Assay: RORγ Reporter Assay (Gal4)
Type: cell-based
Conditions: HEK-293T, 1 μM test compound, HEK293t RORγ reporter cells, 24 hour; read-out: Gal4 activity range @ 1 μM (% inhibition)

compound="COC(=O)CC(c1ccc(C(F)(F)F)cc1)N(c1ncnc(NCc2ccc(CC(N)=O)cc2)c1F)C1CC1 (stereo not shown) [Example A16]" endpoint="inhibition at 1 µM" measured="> 20%"
compound="CN(c1ncnc(NCc2ccc(CC(N)=O)cc2)c1F)C1(c2ccc(C(F)(F)F)cc2)CC1 [Example A81]" endpoint="inhibition at 1 µM" measured="> 80%"
compound="CS(=O)(=O)c1ccc(CNc2ncnc(N(Cc3ccc(C(F)(F)F)cn3)C3CC3)c2F)cn1 [Example A108]" endpoint="inhibition at 1 µM" measured="> 80%"

Challenge: Please look up its inhibition at 1 µM: CS(=O)(=O)NCC1(CNc2ncnc(N(Cc3ccc(C(F)(F)F)cc3)C3CC3)c2F)CCOCC1 [Example A63]
Response given: > 80%

Challenge: Again, but for CS(=O)(=O)c1ccc(CNc2ncnc(N(Cc3ccc(C(F)(F)F)nc3)C3CC3)c2F)cn1 [Example A110]
Response given: > 50%

###

biological target: ligand binding domain of human RORγ (Homo sapiens); construct: host or cells: HEK293t; experiment: RORγ Reporter Assay (Gal4); type: cell-based; settings: HEK-293T, 1 μM test compound, HEK293t RORγ reporter cells, 24 hour; read-out: Gal4 activity range @ 1 μM (% inhibition)
endpoint: inhibition at 1 µM

compound="NC(=O)Cc1ccc(CNc2ncnc(N(Cc3cc(C(F)(F)F)ccn3)C3CC3)c2F)cc1 [Example A178]" measured="> 20%"

Challenge: Please look up its inhibition at 1 µM: O=S(=O)(Nc1ccc(CNc2ncnc(N(Cc3ccc(C(F)(F)F)cc3)C3CC3)c2F)cc1)C(F)F [Example A91]
Response given: > 80%

Challenge: Again, but for OCC1(Cn2ccc3c(N(Cc4ccc(C(F)(F)F)cc4)C4CC4)ncnc32)COC1 [Example A56]
Response given: > 80%

Challenge: Again, but for CC1(c2ccc(CNc3ncnc(N(Cc4ccc(C(F)(F)F)cc4)C4CC4)c3F)cc2)NC(=O)NC1=O (stereo not shown) [Example A82]
Response given: > 80%

###

biological target: ligand binding domain of human RORγ (Homo sapiens); construct: host or cells: HEK293t; assay: RORγ Reporter Assay (Gal4); format: cell-based; settings: RORγ Reporter Assay (Gal4), HEK293t reporter cells, compound at 0.1 μM; values are activity range bounds
endpoint: Gal4 activity range @ 0.1 μM (% inhibition)

Answered cases to consult:
molecule=Cc1ccc(CN(C)c2ncnc(NCc3ccc(CC(N)=O)cc3)c2F)c(C)c1 measured=">0 % inhibition"
molecule=CS(=O)(=O)c1ccc(CNc2ncnc(N(Cc3ccc(C(F)(F)F)cn3)C3CC3)c2F)cn1 measured=">20 % inhibition"

Challenge: Please look up its Gal4 activity range @ 0.1 μM (% inhibition): CS(=O)(=O)c1ccc(CNc2ncnc(N(Cc3ccc(C(F)(F)F)cc3)C3CC3)c2F)cn1
Response given: >80 % inhibition

Challenge: Again, but for CS(=O)(=O)NCC1(CNc2ncnc(N(Cc3ccc(C(F)(F)F)cc3)C3CC3)c2F)CCOCC1
Response given: >80 % inhibition

Challenge: Again, but for NC(=O)Cc1ccc(CNc2ncnc(N(Cc3cnc(C(F)(F)F)nc3)C3CC3)c2F)cc1
Response given: >50 % inhibition

Challenge: Again, but for CN(Cc1cccc(-n2cccn2)c1)c1ncnc(NCc2ccc(CC(N)=O)cc2)c1F
Response given: >20 % inhibition

Challenge: Again, but for NC(=O)Cc1ccc(CNc2ncnc(N(Cc3ccccc3Cl)C3CC3)c2F)cc1
Response given: >20 % inhibition

All values here come from patent US10683293B2.
